Reference source for all entries: patent US10221173B2

measurement notes: Human plasma protein binding (equilibrium dialysis)
Format: in vitro ADME
observed property: Human plasma protein binding (% free)

- compound: "COc1ccc(OCCNCCCF)cc1[C@@H]1c2[nH]c3ccccc3c2C[C@@H](C)N1CC(F)(F)F [Example 7]"
  result unit: "% free"
  numeric result: 1.5
- compound: "C[C@@H]1Cc2c([nH]c3ccccc23)[C@@H](c2c(F)ccc(OCCN(C)CCCF)c2F)N1CC1(F)COC1 [Example 154]"
  result unit: "% free"
  numeric result: 2.7
- compound: "Cc1c([C@@H]2c3[nH]c4ccccc4c3C[C@@H](C)N2C[C@@H](C)C(=O)O)ccnc1OCCN(C)CCCF [Example 161]"
  result unit: "% free"
  numeric result: 6.3
- compound: "C[C@@H]1Cc2c([nH]c3ccccc23)[C@@H](c2cncc(OCCNCCCF)c2)N1CC(F)(F)F [Example 101]"
  result unit: "% free"
  numeric result: 8.4
- compound: "COc1ccc(OCCNCCCF)c(F)c1[C@@H]1c2[nH]c3ccccc3c2C[C@@H](C)N1CC(F)(F)CO [Example 81]"
  result unit: "% free"
  numeric result: 2.9
- compound: "Cc1c(OCCNCCCF)ncnc1[C@@H]1c2[nH]c3ccccc3c2C[C@@H](C)N1CC(F)(F)F [Example 114]"
  result unit: "% free"
  numeric result: 1.7
- compound: "Cc1c(N(C)CCN(C)CCCF)ccc(F)c1[C@@H]1c2[nH]c3ccccc3c2C[C@@H](C)N1C[C@H](C)C(=O)O [Example 147]"
  result unit: "% free"
  numeric result: 19
- compound: "C[C@@H]1Cc2c([nH]c3ccccc23)[C@@H](c2c(F)ccc(OCCNCCCF)c2Cl)N1CC(F)(F)CO [Example 85]"
  result unit: "% free"
  numeric result: 1.0
- compound: "C[C@@H]1Cc2c([nH]c3ccccc23)[C@@H](c2cc(OCCNCCCF)ccc2Cl)N1CC(F)(F)CO [Example 44]"
  result unit: "% free"
  numeric result: 2.3
- compound: "CC(CN1[C@H](c2c(Cl)ccc(OCCNCCCF)c2Cl)c2[nH]c3ccc(F)cc3c2C[C@H]1C)C(=O)O (single isomer, unassigned) [Example 130]"
  result unit: "% free"
  numeric result: 7.8
- compound: "C[C@@H]1Cc2c([nH]c3ccc(F)cc23)[C@@H](c2c(F)ccc(OCCNCCCF)c2F)N1CC(F)(F)CO [Example 15]"
  result unit: "% free"
  numeric result: 3.2
- compound: "C[C@@H]1Cc2c([nH]c3ccc(F)cc23)[C@@H](c2c(F)cnc(OCCNCCCF)c2F)N1CC(F)(F)CO [Example 65]"
  result unit: "% free"
  numeric result: 1.9
- compound: "C[C@@H]1Cc2c([nH]c3ccccc23)[C@@H](c2cc(F)cc(OCCNCCCF)c2F)N1CC(F)(F)F [Example 31]"
  result unit: "% free"
  numeric result: 0.41
- compound: "C[C@@H]1Cc2c([nH]c3ccccc23)[C@@H](c2cc(OCCNCCCF)ccn2)N1CC(F)(F)F [Example 35]"
  result unit: "% free"
  numeric result: 5.4

====

measurement notes: Thermodynamic solubility (shake-flask)
Assay type: physicochemical
applied conditions: aqueous phosphate buffer, 25 °C, pH 7.4, aqueous buffer, thermodynamic from solid, phosphate buffer pH 7.4, 24 hours
Listed next: entries and their corresponding log10 solubility at 24 h.
observed property: log10 solubility at 24 h (log10 of the value in µM)

- compound: "C[C@@H]1Cc2c([nH]c3ccccc23)[C@@H](c2cccc(OCCNCCCF)c2C#N)N1CC(F)(F)F [Example 69]"
  observed property: "log10 solubility at 24 h"
  numeric result: 2.18
- compound: "C[C@@H]1Cc2c([nH]c3ccccc23)[C@@H](c2cccc(NCCNCCCF)c2)N1CC1(F)COC1 [Example 2]"
  observed property: "log10 solubility at 24 h"
  numeric result: 2.95
- compound: "C[C@@H]1Cc2c([nH]c3ccccc23)[C@@H](c2cc(F)cc(OCCNCCCF)c2F)N1CC(F)(F)F [Example 31]"
  observed property: "log10 solubility at 24 h"
  numeric result: 1.60
- compound: "COc1ccc(OCCNCCCF)c(F)c1[C@@H]1c2[nH]c3ccccc3c2C[C@@H](C)N1CC1(F)COC1 [Example 84]"
  observed property: "log10 solubility at 24 h"
  numeric result: 2.81
- compound: "COc1ccc(OC[C@@H](C)NCCCF)cc1[C@@H]1c2[nH]c3ccccc3c2C[C@@H](C)N1CC(F)(F)CO [Example 50]"
  observed property: "log10 solubility at 24 h"
  numeric result: 2.66
- compound: "C[C@@H]1Cc2c([nH]c3ccccc23)[C@@H](c2c(F)ccc(OCCNCCCF)c2F)N1CC(F)F [Example 51]"
  observed property: "log10 solubility at 24 h"
  numeric result: 2.09
- compound: "C[C@@H]1Cc2c([nH]c3ccccc23)[C@@H](c2c(F)ccc(OCCNCCCF)c2Cl)N1CC(F)(F)CO [Example 85]"
  observed property: "log10 solubility at 24 h"
  numeric result: 2.35
